method.summary: chemical genetic growth profiling, strain panel (AID 1159580);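 further: tested at 20 µM; growth read once vehicle control cultures reached saturation at 30 °C; 1 = growth at the plate median or of vehicle wells; lower values mean less growth of the strain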
condition.set: S. cerevisiae deletion strains, growth OD, locus YDR101C, strain arx1
The campaign covered roughly 5,500 compounds. About 2,000 (36%) were called active. Roughly 18% stayed inconclusive and do not appear here. No stated cut-off is given here; in the data, active means normalized growth mostly below about 0.91 (no sharp cut-off); inconclusive means no clear call, values can overlap the other calls; inactive means mostly above about 0.92. Some of the results follow.
Outcomes: 1 for active, 0 for inactive

| molecule | category.label |
| --- | --- |
| NCCCC[C@H](N[C@@H](CCc1ccccc1)C(=O)O)C(=O)N1CCC[C@H]1C(=O)O | 0 |
| CC1(C)C(=O)C=C[C@@]2(C)C1=C(O)C(=O)[C@]1(C)C2CC[C@@]2(C)[C@H](c3ccoc3)C[C@H]3O[C@]321 (stereo partly specified) | 1 |
| OC[C@@H](O)[C@@H](O[C@@H]1O[C@H](CO)[C@@H](O)[C@H](O)[C@H]1O)[C@H](O)[C@@H](O)CO | 0 |
| O=C(OC1Cc2c(O)cc(O)cc2OC1c1cc(O)c(O)c(O)c1-c1c(C2Oc3cc(O)cc(O)c3CC2OC(=O)c2cc(O)c(O)c(O)c2)cc(O)c(O)c1O)c1cc(O)c(O)c(O)c1 (stereo unspecified) | 0 |
| O=C1O[C@H](C(O)CO)C(O)=C1O (stereo partly specified) | 0 |
| C=C(C)[C@H]1CC=C(C(=O)O)CC1 | 0 |
| Cc1ccc(/C(=C\CN2CCCC2)c2ccccn2)cc1 | 0 |
| O=C(O[C@@H]1Cc2c(O)cc(O)cc2O[C@@H]1c1cc(O)c(O)c(O)c1-c1c([C@H]2Oc3cc(O)cc(O)c3C[C@H]2O)cc(O)c(O)c1O)c1cc(O)c(O)c(O)c1 | 1 |
| CN1C(CC(=O)c2ccccc2)CCCC1CC(O)c1ccccc1 (stereo unspecified) | 0 |
| CCCC(C)C1(CC)C(=O)NC(=O)NC1=O (stereo unspecified) | 0 |
| COC(=O)C[C@H]1C(C)(C)C(=O)[C@@H]2CC3=C4CC(=O)O[C@@H](c5ccoc5)[C@]4(C)CCC3[C@@]1(C)C2=O (stereo partly specified) | 0 |

====

method.summary: chemical genetic growth profiling, strain panel (AID 1159580);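 further: tested at 20 µM; growth read once vehicle control cultures reached saturation at 30 °C; 1 = growth at the plate median or of vehicle wells; lower values mean less growth of the strain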
condition.set: S. cerevisiae deletion strains, growth OD, locus YBR021W, strain FUR4
The whole screen tested about 5,500 compounds, of which about 2,000 (36%) were called active. Another 18% or so got no clear call; they are omitted. Cut-off read from the data, not from the text of the source: active = normalized growth mostly below about 0.91 (no sharp cut-off); inconclusive = no clear call, values can overlap the other calls; inactive = mostly above about 0.92. Some of the results follow.
Outcomes: active, inactive

| compound | category.label |
| --- | --- |
| O=C(OC1Cc2c(O)cc(O)cc2OC1c1cc(O)c(O)c(O)c1-c1c(C2Oc3cc(O)cc(O)c3CC2OC(=O)c2cc(O)c(O)c(O)c2)cc(O)c(O)c1O)c1cc(O)c(O)c(O)c1 (stereo not given) | inactive |
| Oc1ccc(Cl)c2cccnc12 | active |
| CCCCC1=NC2(CCCC2)C(=O)N1Cc1ccc(-c2ccccc2-c2nn[nH]n2)cc1 | inactive |
| CC(C)N(C(=O)SCC(Cl)=C(Cl)Cl)C(C)C | inactive |
| NCCNC(=O)c1ccc(Cl)cc1 | inactive |
| Oc1c(Cl)cc(Cl)c2cccnc12 | active |
| COc1cc(C(=O)NCc2ccc(OCCN(C)C)cc2)cc(OC)c1OC | inactive |
| CCC[C@H]1CC2=C(C[C@@H](CC)CC3=C1C(=O)OC3=O)C(=O)OC2=O | inactive |
| c1ccc2c3c([nH]c2c1)CNCC3 | inactive |
| O=C1O[C@H](C(O)CO)C(O)=C1O (stereo not given in full) | inactive |
| C[C@H]1[C@H]2CCC3C4CC=C5C[C@@H](N(C)C)CC[C@]5(C)C4CC[C@@]32CN1C (stereo not given in full) | inactive |
| O=C(O)/C=C/C=C/c1ccccc1 | inactive |
| C=C(CC)C(=O)c1ccc(OCC(=O)O)c(Cl)c1Cl | inactive |
| CC(C)(C)NCC(O)c1ccccc1Cl (stereo not given) | inactive |
| CN[C@H](CC(=O)O)C(=O)O | inactive |
| CN(C)CCOC(C)(c1ccccc1)c1ccccn1 (stereo not given) | inactive |
| CC1(C)C(O)CC(O)C2(C)C1CC(O)C1(C)C2CCC2(C)C(c3ccoc3)CC3OC321 (stereo not given) | inactive |
| CCCc1occc(=O)c1/C=C/O | inactive |
| CCN(CC)CCOc1ccc2c(c1)C(=O)c1cc(OCCN(CC)CC)ccc1-2 | inactive |
| CC(=O)c1c(O)c(C)c(O)c2c1OC1=CC(=O)C(C(C)=O)C(=O)C12C (stereo not given) | inactive |
| NCC(CC(=O)O)c1ccc(Cl)s1 (stereo not given) | inactive |
| NC(=NCCC[C@H](N)C(=O)O)NC(CCC(=O)O)C(=O)O (stereo not given in full) | inactive |
| CCC(Cc1c(I)cc(I)c(N)c1I)C(=O)O (stereo not given) | inactive |
| O=C1C=CC2=C3c4cc(O)c(O)cc4CC3(O)COC2=C1O (stereo not given) | inactive |
| CCCCC1(COC(=O)CCC(=O)O)C(=O)N(c2ccccc2)N(c2ccccc2)C1=O | inactive |
| C=C[C@](C)(O)CCC=C(C)C | inactive |
| C=CC(C1=CC(=O)C(OC)=CC1=O)c1ccccc1 (stereo not given) | inactive |
| O=C(O)CCC(=O)C(=O)O | inactive |
| CC(=O)O[C@@H]1C[C@@]2(C)[C@H](c3ccoc3)C[C@H]3O[C@]32[C@]2(C)C(=O)C(O)=C3C(C)(C)C(=O)C=C[C@]3(C)C12 (stereo not given in full) | inactive |
| CC(=O)O[C@@H]1CC2C(C)(C)C(=O)CC[C@]2(C)C2CC[C@]3(C)C(=CC(=O)O[C@H]3c3ccoc3)[C@@]21C (stereo not given in full) | inactive |
